TESTED SYSTEM: T1, recombinant human PD-L2 (human PD-L2 antigen) (human, UniProt Q9BQ51 20-219, limits assumed)
T1 construct: The Biacore analyte and the ELISA antigen are only called human PD-L2 antigen / recombinant hPD-L2; Whole entry named; also called hPD-L2; recombinant hPD-L2
T1 sequence (looked up): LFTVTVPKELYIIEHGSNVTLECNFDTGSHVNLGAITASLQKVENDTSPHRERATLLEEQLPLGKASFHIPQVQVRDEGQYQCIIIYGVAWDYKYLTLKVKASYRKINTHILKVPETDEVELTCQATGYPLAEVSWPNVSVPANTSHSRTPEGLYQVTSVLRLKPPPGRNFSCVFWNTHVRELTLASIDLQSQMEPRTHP
PROCEDURE SUMMARY: SPR (Biacore 8K), single cycle kinetics, antibody in culture supernatant, human PD-L2 antigen
REPORTED METRIC: Kd (nM)
Report the figure in nM without appending any unit label.

BINDER	RECORDED MEASUREMENT
VH1/VK1 (antibody, V domains shown, hIgG1 backbone, CHO expressed) VH: QVQLVQSGAELKKPGSSVKVSCKASGYAFSNYFIEWVKQPPGKGLEWIGLNIPGSGGSNYAEKFKGRATITADKSTSTAYMELSSLTSEDSAVYFCARRRLPPDWYFDVWGQGTTVTVSS VL: DVVMTQSPLSLPVTLGQPASISCRSSQSLVHSDGNTYLHWYQQKPGQPPKLLIYKVSNRFSGVPDRFSGSGSGTDFTLKISRVEAEDVGVYFCSQSTHVPWTFGGGTKVEIK	0.0475
VH1/VK3 (antibody, V domains shown, hIgG1 backbone, CHO expressed) VH: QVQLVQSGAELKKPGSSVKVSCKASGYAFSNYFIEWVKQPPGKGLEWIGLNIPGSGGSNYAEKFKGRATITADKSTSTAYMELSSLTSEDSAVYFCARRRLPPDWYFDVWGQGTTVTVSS VL: DVVMTQSPLSLPVTLGQPASISCRSSQSLVHSGGNTYLHWYQQKPGQPPKLLIYKVSNRFSGVPDRFSGSGSGTDFTLKISRVEAEDVGVYFCSQSTHVPWTFGGGTKVEIK	0.223

Consider the additional binder presented here.
Q: Name the reported Kd value associated with the binder VH2/VK2 (antibody, V domains shown, hIgG1 backbone, CHO expressed) VH: QVQLVQSGAEVKKPGSSVKVSCKASGYAFSNYFIEWVKQPPGKGLEWIGLNIPGSGGSNYAEKFKGRATITADKSTSTAYMELSSLRSEDSAVYFCARRRLPPDWYFDVWGQGTTVTVSS VL: DVVMTQSPLSLPVTLGQPASISCRSSQSLVHSDGNTYLHWYQQKPGQPPKLLIYKVSNRFSGVPDRFSGSGSGTDFTLKISRVEAEDVGVYYCSQSTHVPWTFGGGTKVEIK
A: 0.0555
